test system: SK-MEL-2; assay: Anti-proliferative effect (CellTiter-Glo, 72 h), SK-MEL-2; type: cell-based; conditions: Homo sapiens, SK-MEL-2 cells, median, read-out: IC50 antiproliferation assay SK-MEL-2 [M] (median)
Exercise: for every item that follows, state its recorded IC50.
Give bare numbers, in M.

For each entry beneath this line, provide reported IC50.
1. CCc1nn(C)c2c1-c1c(C)ccc3c(CCCOc4cccc5cc(F)ccc45)c(C(=O)O)n(c13)CCCCOC2 (single isomer, unassigned) [Example 267]
2. Cn1nc(COc2ccc(N3CCN(S(C)(=O)=O)CC3)cc2)c2c1COCCCCn1c(C(=O)O)c(CCCOc3cccc4ccccc34)c3cccc-2c31 (single isomer, unassigned; enantiomer 2) [Example 1-10]
3. CCc1c2c(nn1C)COCCCCn1c(C(=O)O)c(CCCOc3cccc4ccccc34)c3cccc-2c31 (single isomer, unassigned; enantiomer 1) [Example 148]

1: 2e-05; 2: 1.12e-05; 3: 2.67e-05
